# target: KDM3B (Homo sapiens, UniProt Q7LBC6)
# Sequence (Q7LBC6 2-1761): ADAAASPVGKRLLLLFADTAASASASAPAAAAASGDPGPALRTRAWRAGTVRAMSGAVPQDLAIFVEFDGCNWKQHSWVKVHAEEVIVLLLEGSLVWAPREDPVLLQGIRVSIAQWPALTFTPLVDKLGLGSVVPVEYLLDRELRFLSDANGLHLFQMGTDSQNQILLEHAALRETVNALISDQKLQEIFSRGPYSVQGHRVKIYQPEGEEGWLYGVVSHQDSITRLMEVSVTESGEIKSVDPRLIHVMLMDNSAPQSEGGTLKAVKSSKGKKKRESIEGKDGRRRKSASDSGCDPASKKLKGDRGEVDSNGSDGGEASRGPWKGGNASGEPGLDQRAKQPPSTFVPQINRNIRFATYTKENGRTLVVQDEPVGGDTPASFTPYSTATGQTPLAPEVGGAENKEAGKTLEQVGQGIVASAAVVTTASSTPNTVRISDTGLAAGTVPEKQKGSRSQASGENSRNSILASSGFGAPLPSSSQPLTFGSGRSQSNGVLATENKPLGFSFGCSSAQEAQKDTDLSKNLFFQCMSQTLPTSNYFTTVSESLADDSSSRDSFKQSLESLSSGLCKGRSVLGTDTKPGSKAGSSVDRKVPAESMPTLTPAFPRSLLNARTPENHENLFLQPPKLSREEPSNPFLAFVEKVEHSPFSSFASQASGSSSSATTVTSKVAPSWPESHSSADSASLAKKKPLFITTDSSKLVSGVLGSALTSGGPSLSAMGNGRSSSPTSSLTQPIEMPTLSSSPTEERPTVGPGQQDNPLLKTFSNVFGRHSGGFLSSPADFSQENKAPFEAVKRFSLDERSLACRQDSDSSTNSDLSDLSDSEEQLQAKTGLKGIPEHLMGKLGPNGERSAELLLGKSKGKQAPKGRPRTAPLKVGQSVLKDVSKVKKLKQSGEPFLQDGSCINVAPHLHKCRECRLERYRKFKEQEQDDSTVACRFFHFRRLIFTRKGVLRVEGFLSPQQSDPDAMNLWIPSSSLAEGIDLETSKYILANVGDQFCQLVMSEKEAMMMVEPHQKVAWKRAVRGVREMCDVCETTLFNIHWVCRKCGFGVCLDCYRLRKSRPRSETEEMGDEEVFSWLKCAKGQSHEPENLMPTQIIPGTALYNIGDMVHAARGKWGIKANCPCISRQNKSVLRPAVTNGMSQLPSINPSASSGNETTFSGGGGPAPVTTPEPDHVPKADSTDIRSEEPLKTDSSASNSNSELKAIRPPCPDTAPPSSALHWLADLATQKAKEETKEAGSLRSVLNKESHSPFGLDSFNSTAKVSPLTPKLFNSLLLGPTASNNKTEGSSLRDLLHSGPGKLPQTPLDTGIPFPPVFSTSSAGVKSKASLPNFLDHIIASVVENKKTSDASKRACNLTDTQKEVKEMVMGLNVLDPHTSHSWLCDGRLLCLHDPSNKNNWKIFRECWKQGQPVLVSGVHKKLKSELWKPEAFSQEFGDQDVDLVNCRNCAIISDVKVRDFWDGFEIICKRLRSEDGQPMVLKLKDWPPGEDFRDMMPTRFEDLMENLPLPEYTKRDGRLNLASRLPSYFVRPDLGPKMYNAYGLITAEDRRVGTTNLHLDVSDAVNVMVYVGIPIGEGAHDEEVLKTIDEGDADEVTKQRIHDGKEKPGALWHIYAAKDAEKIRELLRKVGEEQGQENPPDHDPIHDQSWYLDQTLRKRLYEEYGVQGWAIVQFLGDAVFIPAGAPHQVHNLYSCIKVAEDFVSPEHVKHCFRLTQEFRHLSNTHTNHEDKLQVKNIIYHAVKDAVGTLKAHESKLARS
pIC50: −log10 of the molar value.
measurement-label: pIC50

compound-smiles	measurement-label	meas-value
Cc1cc(C)cc(C(=O)NNC(=O)c2ccccn2)c1	pIC50	5.15

---

# Tested on: CTR
# assay-comment: cells
# Design: 72 h cell growth/viability dose-response in pediatric solid tumour lines and primary fibroblasts
# condition-notes: Fibroblast, 72 h; read-out: P3FI-63 EC50 (72 hr)
# Text: The half-maximal effective concentrations (EC50) of P3FI-63 on FP-RMS cell lines RH4, RH30, and SCMC were in the single digit µM range (Fig. 1E). Next, we tested other pediatric solid cancer lines to determine broader applicability of P3FI-63.

compound-smiles	EC50 / nM
Cc1cc(C)cc(C(=O)NNC(=O)c2ccccn2)c1	2920

Cited source for all entries: paper PMC10894237
